# TEST DETAILS: Inhibition of cupric ion-mediated amyloid beta (1 to 42) aggregation at 25 uM measured after 24 hrs by ThT fluorescence assay relative to control
REPORTED METRIC: inhibition (%)
Numbers only, in %.

Provide reported inhibition for each item, in the same order as listed.
1. CN(CCCOc1cc(O)c2c(=O)c3ccccc3sc2c1)Cc1ccccc1
2. CCN(CCCCOc1cc(O)c2c(=O)c3ccccc3sc2c1)Cc1ccccc1OC
3. CCN(CCCCOc1cc(O)c2c(=O)c3ccccc3sc2c1)Cc1ccccc1
4. COc1ccccc1CN(C)CCCOc1cc(O)c2c(=O)c3ccccc3sc2c1
5. CCN(CCCCOc1cc(O)c2c(=O)c3ccccc3sc2c1)Cc1ccc(N(C)C)cc1

Marked response:
81.1
82
82.1
77.8
81.9

---

Give inhibition at 0.25 h, 50 µM for every item shown.
# Tested on: BuChE (butyrylcholinesterase)
# TEST DETAILS: Inhibition of rat serum BuChE at 50 uM using S-butylthiocholine iodide as substrate measured after 15 mins by Ellman's method relative to control
# MEASUREMENT PARAMETERS: probe S-butylthiocholine iodide

Observe how each entry below is paired with its result.
SMILES STR | RESULT
CN(CCCOc1cc(O)c2c(=O)c3ccccc3sc2c1)Cc1ccccc1 | < 5%
O=c1c2ccccc2sc2cc(O)cc(O)c12 | < 5%
CCN(CCCOc1cc(O)c2c(=O)c3ccccc3sc2c1)Cc1ccc(N(C)C)cc1 | < 5%

Exam item: For CCN(CCCCOc1cc(O)c2c(=O)c3ccccc3sc2c1)Cc1ccccc1OC , what is its reported inhibition at 0.25 h, 50 µM?
Marked response: < 5%

---

# TEST TARGET: Amine oxidase [flavin-containing] B (Homo sapiens)
# Sequence (P27338 whole entry): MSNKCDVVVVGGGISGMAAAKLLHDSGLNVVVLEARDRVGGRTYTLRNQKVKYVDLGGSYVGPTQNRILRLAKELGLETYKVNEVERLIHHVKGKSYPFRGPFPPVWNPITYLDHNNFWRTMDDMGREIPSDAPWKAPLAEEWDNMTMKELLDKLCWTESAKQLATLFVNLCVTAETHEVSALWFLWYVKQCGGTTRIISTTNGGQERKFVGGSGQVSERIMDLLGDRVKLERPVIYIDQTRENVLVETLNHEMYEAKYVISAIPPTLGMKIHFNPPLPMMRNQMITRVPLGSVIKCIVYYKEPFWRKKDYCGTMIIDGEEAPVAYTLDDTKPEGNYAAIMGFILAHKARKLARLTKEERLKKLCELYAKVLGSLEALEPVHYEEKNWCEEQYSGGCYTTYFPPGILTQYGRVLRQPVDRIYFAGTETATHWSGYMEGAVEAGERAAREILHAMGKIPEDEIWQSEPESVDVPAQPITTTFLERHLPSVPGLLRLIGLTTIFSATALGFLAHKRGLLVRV
# TEST DETAILS: Inhibition of recombinant human MAO-B expressed in baculovirus infected BTI insect cells using kynuramine as substrate after 30 mins by fluorimetric method
pIC50: −log10 of the molar value.
Rule: class 1 for pIC50 not less than 6, class 0 for anything less.

SMILES STR | DISCRETE LABEL
CN(CCCCCCOc1cc(O)c2c(=O)c3ccccc3sc2c1)Cc1ccccc1 | class 1
CCN(CCCCOc1cc(O)c2c(=O)c3ccccc3sc2c1)Cc1ccccc1N(C)C | class 0
COc1ccccc1CN(C)CCCCCCOc1cc(O)c2c(=O)c3ccccc3sc2c1 | class 1
CN(CCCCOc1cc(O)c2c(=O)c3ccccc3sc2c1)Cc1ccccc1 | class 1

Exam item: Please check the record CCN(CCCOc1cc(O)c2c(=O)c3ccccc3sc2c1)Cc1ccccc1 and state if its pIC50 is at or above 6.
Marked response: class 0

Exam item: Given the entry O=c1c2ccccc2sc2cc(O)cc(O)c12 , answer whether its pIC50 meets or surpasses 6.
Marked response: class 1

Exam item: Answer whether pIC50 of CCN(CCCCOc1cc(O)c2c(=O)c3ccccc3sc2c1)Cc1ccccc1 is greater than or equal to 6.
Marked response: class 1

Exam item: API: above_or_equal(metric=pIC50, cutoff=6) for item CCN(CCCCCCOc1cc(O)c2c(=O)c3ccccc3sc2c1)Cc1ccccc1OC
Marked response: class 1

Exam item: Does the compound CCN(CCCOc1cc(O)c2c(=O)c3ccccc3sc2c1)Cc1ccc(N(C)C)cc1 have recorded pIC50 that is 6 or more?
Marked response: class 0

Exam item: Is reported pIC50 greater than or equal to 6 here: COc1ccccc1CN(C)CCCOc1cc(O)c2c(=O)c3ccccc3sc2c1
Marked response: class 0

Exam item: Determine whether this compound has pIC50 no lower than 6: CCN(CCCCOc1cc(O)c2c(=O)c3ccccc3sc2c1)Cc1ccc(N(C)C)cc1
Marked response: class 0
